- Experiment notes: Solubility in aqueous buffer at pH 7.4
- Format: physicochemical
Measured endpoint: solubility

OC[C@@H]1CCCN1Cc1ccc(Nc2nc3ncnc(Nc4ccc(F)c(Cl)c4)c3s2)cc1 = < 0.2 µg/mL
CN(C)Cc1ccc(Nc2nc3ncnc(Nc4ccc(F)c(Cl)c4)c3s2)cc1 = 27 µg/mL
Fc1ccc(Nc2ncnc3nc(Nc4ccc(CCN5CCOCC5)cc4)sc23)cc1Cl = < 0.2 µg/mL
N#Cc1cnc2nc(Nc3ccc(CN4CCOCC4)cc3)sc2c1Nc1ccc(F)c(Cl)c1 = < 0.2 µg/mL
NS(=O)(=O)c1ccc(Nc2nc3ncnc(Nc4cccc(Cl)c4)c3s2)cc1 = < 0.2 µg/mL
Fc1ccc(Nc2ncnc3nc(Nc4ccc(CN5CCOCC5)cc4)sc23)cc1Cl = 1 µg/mL

Reported solubility ( "CCc1nccn1Cc1ccc(Nc2nc3ncnc(Nc4ccc(F)c(Cl)c4)c3s2)cc1" ) = < 0.2 µg/mL
